These data points were gathered from patent US20190352664A1.

System: Arabidopsis
Experiment: Ribo-seq and RNA-seq global translatome profiling (translational efficiency TE, mORF/uORF ribo-shift) upon elf18 treatment
Assay type: in vivo
Design: key: Up: ribo-shift up (i.e., increased mORF/uORF ratio); Down: ribo-shift down (i.e., decreased mORF/uORF ratio)
Details: shift of mORF/uORF ratio, elf18 vs Mock; per uORF

{"substance": "AT5G57460.1_1: uORF of AT5G57460.1; peptide SEQ ID NO: 37 (DNA ATGTTTCAATCTAACCATTGA; listed as DNA, chemistry not fully specified)", "assayed-system": "Arabidopsis", "score (Ribo-shift)": "Up"}
{"substance": "AT2G34630.1_2: uORF of AT2G34630.1; peptide SEQ ID NO: 10 (DNA ATGAGCTGTCACTTCTTAGTAATAAGTTGA; listed as DNA, chemistry not fully specified)", "assayed-system": "Arabidopsis", "score (Ribo-shift)": "Up"}
{"substance": "AT4G11110.1_1: uORF of AT4G11110.1; peptide SEQ ID NO: 21 (DNA ATGATTGGCTTCTCACGATTCGATTTTTCCGGCTCCTGTTCTTAA; listed as DNA, chemistry not fully specified)", "assayed-system": "Arabidopsis", "score (Ribo-shift)": "Up"}
